Endpoint: EC50. System: primary human T-cells. Items follow.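 Note: cd3-stimulated proliferation read by CellTiter-Glo after 5 days.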
The reply should contain only the number, in nM.

Illustrative cases are given below, each with its answer.
N[C@H]1CS(=O)(=O)c2cc(F)c(-c3noc(N4CCC(F)(F)CC4)n3)cc2N(Cc2ccc(Cl)cc2)C1=O | 226
NC(Cn1nnc(-c2cc3c(cc2F)S(=O)(=O)C[C@H](N)C(=O)N3Cc2ccc(Cl)cc2)n1)C(F)(F)F (stereo partly shown) | 917

Please report the recorded EC50 for COC(=O)N1CC2CC(c3nc(-c4cc5c(cc4F)[S+]([O-])C[C@H](N)C(=O)N5Cc4ccc(OC(F)(F)F)cc4)no3)(C2)C1 (stereo partly shown) [Example 336] .
7020

And what about the compound CN(C)CC(C)(C)c1nnc(-c2cc3c(cc2F)S(=O)(=O)C[C@H](N)C(=O)N3Cc2ccc(Cl)cc2)o1 ?
260

And what about the compound N[C@H]1CS(=O)(=O)c2cc(F)c(-c3nnc(N4CCC5(CC4)COC5)o3)cc2N(Cc2ccc(Cl)cc2)C1=O ?
832

And what about the compound N[C@H]1CS(=O)(=O)c2cc(F)c(-c3nnc(C45CNCCC4C5)o3)cc2N(Cc2ccc(Cl)cc2)C1=O (stereo partly shown) ?
6370

And what about the compound CN1CCC(n2nnc(-c3cc4c(cc3F)S(=O)(=O)C[C@H](N)C(=O)N4Cc3ccc(Cl)cc3)n2)C1 (stereo partly shown) ?
967
